assay: yeast display, Sf9 membrane polyspecificity reagent, FACS + sequencing; frameworks hold sequencing errors
quantity name: polyreactivity (PSR sort gate)

Guide cases for polyreactivity (PSR sort gate), answers given:
residue sequence	polyreactivity (PSR sort gate)
QVQLVESGGGLVQAGGSLRLSCAASGSIFGYYTMGWYRQAPGKERELVAAITSGGSTNYADSVKGRFTISRDNAKNTVYLQMNSLKPEDTAVYYCAKVSYYPWRYDYWGQGTQVTVSS	low polyreactivity
QVQLVESGGGLVQAGGSLRLSCAASGIIIDRYAMGWYRQAPGKERELVAAISWSGGRTYYADSVKGRFTISRDNAKNTVYLQMNSLKPEDTAVYYCAAKPSVDLDYWGQGTQVTVSS	high polyreactivity
QVQLVESGGGLVQAGGSLRLSCAASGITFYYNDMGWYRQAPGKERELVAAISSGGTTNYADSVKGRFTISRDNAKNTVYLQMNSLKPEDTAVYYCATGYAEPEWYPFVSDYDYWGQGTQVTVSS	low polyreactivity
QDQLVESGGRLVQAGGSLRLSCAASGRTVYYYTMGWYRQAPGKEREFVAGIRYSGSSTYYADSVKGRFTISRDTAKNTVSFQMNSLKPEATAVYYCAASLWRWRFSRFGYWGQGTQVTVSS	high polyreactivity
QVQLVESAGGLVQAGGSLRLSCAASGRIFYRYAMAWYRQAPGKERELVAAITQSGGSTFYADSVKGRFTISRDNAKNTVYLQMNSLKPEDTAVYYCNAYIPSLRGDYWGQGTQVTVSS	high polyreactivity
QVQLVESGGGLVQAGGSLRLSCAASGSIFDYNAMGWYRQAPGKERELVAAITYSGGTTYADSVKGRFTISRDNAKNTVYLQMNSLKPEDTAVYYCNADVYRWSGSYTGWDSWHDYWGQGTQVTVSS	low polyreactivity
QDQHVESGGGLVQAGGSLRLSCAASGSTFYIYARGWYRQAPGKERELVARISGSGGSTYYADSVKGRFTISRDNAKNTVYLQMNSLKPEDTAVYYCAAEDIYKYYQYYAFPYYRYDYWGQGTQVTVSS	low polyreactivity
QVQLVESGGGLVQAGGSLRLSCAASGSTFIGNAMGWYRQAPGKERELVAAITRSGGSTFYADSVKGRFTISRDNAKNTVYLQMNSLKPEDTAVYYCSAKGNPYRVPGSSYPKVNYWGQGTQVTVSS	high polyreactivity

Q: Given `QVQLQESRGCLVQAGGSLRLTCAASGTISDSGLMGWYRQAPGKERELVAGISSGGITNYADSVKGRFTLSRDNAKNSVYLQMNSLKPEDTAVYWGQGTQVTVSS` , state its recorded polyreactivity (PSR sort gate).
Ans: low polyreactivity

Q: Can you check `QVQLVESGGRLVQAGGSLRLSCAASGYIFKTNVMGWYRQAPGKEREMVAAISWSGGRTYYADSVKGRFTISRDYGKNCVYLQMNSLKPEDTSVYYFAAVGRQSIYFVDYDFWGQGTQVTVSS` next?
Ans: high polyreactivity

Q: Can you check `PVQLVESGGVLVQAGCILRLSCAASGSTFYGYAMGWYRQAPGKERELVAANTSTVITDYADSVKGRFTISRDNAKNTFYFQMNSLKPEVPAVYDCNKERATSVTAEFRGDDAYWVQGTQVTVSS` next?
Ans: low polyreactivity
